The origin of these recorded values is ChEMBL document CHEMBL3227963.

Each entry below lists one item and its recorded Optimal dose value.
system: P388; experiment: Antitumor activity against mouse P388 cells allografted in ip dosed mouse assessed as optimal dose; type: functional
attribute measured: Optimal dose (mg/kg)

1) COc1cccc2c1C(=O)c1c(O)c3c(c(O)c1C2=O)C[C@@](O)(C(=O)CO)C[C@@H]3O[C@H]1C[C@H](N)[C@H](O)[C@H](C)O1 : 4.4
2) COc1cccc2c1C(=O)c1c(O)c3c(c(O)c1C2=O)C[C@@](O)(C(C)=O)C[C@@H]3O[C@H]1C[C@H](N)[C@H](OC)[C@H](C)O1 : 2.9
3) COc1cccc2c1C(=O)c1c(O)c3c(c(O)c1C2=O)C[C@@](O)(C(=O)CO)C[C@@H]3O[C@H]1C[C@H](N)[C@H](OC)[C@H](C)O1 : 6.6
4) COc1cccc2c1C(=O)c1c(O)c3c(c(O)c1C2=O)C[C@@](O)(C(C)=O)C[C@@H]3O[C@H]1C[C@H](N)[C@H](O)[C@H](C)O1 : 2.9
5) COc1cccc2c1C(=O)c1c(O)c3c(c(O)c1C2=O)C[C@@](O)(C(C)=O)C[C@@H]3O[C@H]1C[C@H](N)[C@@H](OC)[C@H](C)O1 : 20
